# log10(TGI) listing for each entry below
Tested on: HS 578T breast
Assay Procedure: NCI tumour cell line growth inhibition, 48 h
Please keep in mind that the values are log10 of TGI expressed in µM.

Solved entries:
INSERT INTO results (molecule, test_result) VALUES
  ('Oc1ccc(Cn2c(-c3ccc(O)c(O)c3)nc3ccccc32)cc1O', 1.55),
  ('COc1cc(-c2cc(-c3nc4ccc(Cl)cc4[nH]3)[nH]n2)cc(OC)c1OC', 1.66),
  ('COc1cc2c(c3c1c(=O)c1ccccc1n3C)C=CC1(CCCCC1)O2', 0.87);

Please look at the following molecule next.
Enquiry: Query log10(TGI) for Cn1c(-c2ccc(/C=N\N3CCN(/N=C/c4ccc(-c5c[n+]6ccsc6n5C)cc4)CC3)cc2)c[n+]2ccsc12
Return: 1.91

----------
Test system: XF 498 CNS
Assay Procedure: NCI tumour cell line growth inhibition, 48 h
Reported Endpoint: TGI

Solved entries:
INSERT INTO results (molecule, test_result) VALUES
  ('O=C(Nc1nc2ncn(CC(COc3ccccc3)OC(=O)c3ccccc3)c2c(=O)[nH]1)c1ccccc1 (stereo not drawn)', '> 100 µM'),
  ('COc1ccc(/C=C2\CCC(C)(CN(C)C)C2=O)cc1 (stereo not drawn)', '> 100 µM'),
  ('COc1ccc([C@H]2CC(=O)NCCCCN2)cc1', '> 100 µM'),
  ('CCCCN1C(=O)NC(Cc2ccccc2)C1=O (stereo not drawn)', '> 100 µM'),
  ('CS(=O)(=O)Nc1ccc(Nc2c3ccccc3nc3ccccc23)cc1', '14.9 µM');

Enquiry: Query TGI for CCOC(=O)/C(=C/c1ccc(C#N)cc1)N(CC)CC
Return: > 100 µM

Enquiry: Query TGI for Cc1cc(Cl)cc2c1NC(=O)C2(O)C(C)C(=O)c1ccc(Cl)cc1 (stereo not drawn)
Return: > 100 µM

----------
# GI50 listing for each entry below
System: SR leukemia
Assay Procedure: NCI tumour cell line growth inhibition, 48 h

INSERT INTO results (smi, test_result) VALUES
  ('N.N.NCCCCN.O=C([O-])C1(C(=O)[O-])CCC1.O=C([O-])C1(C(=O)[O-])CCC1.[Pt+4].[Pt+4]', '34.6 µM'),
  ('CCn1cnc2c(Nc3cccc(Cl)c3)nc(N[C@@H]3CCCC[C@@H]3N)nc21', '0.699 µM'),
  ('CCOC(=O)c1c(C(F)(F)F)n([O-])c2ccc(OC)cc2[n+]1=O', '2.37 µM'),
  ('C[C@@H]1C=C2C(=O)O[C@@H]3CC[C@H](C1)[C@]23O', '3.51 µM'),
  ('C=C1C(=O)O[C@H]2[C@H]1CC/C(COC(=O)NCc1c[nH]c3ccc(Cl)cc13)=C\CC[C@@]1(C)O[C@@H]21', '0.357 µM'),
  ('Cn1cc(C2=C(c3cn(CCN)c4ccccc34)C(=O)NC2=O)c2ccccc21', '4.8 µM');

Enquiry: Query GI50 for C[C@H]1[C@H](C)CC[C@]2(C(=O)O)CC[C@]3(C)C(=CC[C@@H]4[C@@]5(C)C/C(=C/c6ccco6)C(=O)C(C)(C)[C@@H]5CC[C@]43C)[C@H]12
Return: 4.12 µM

Enquiry: Query GI50 for COc1cc(C(=O)c2cc3c(cc2C)OCO3)cc(OC)c1OC
Return: 0.0417 µM

----------
# TGI listing for each entry below
System: HCT-15 colon
Assay Procedure: NCI tumour cell line growth inhibition, 48 h

Enquiry: Query TGI for COc1cc(C(=O)c2cc3c(cc2C)OCO3)cc(OC)c1OC
Return: > 100 µM

----------
System: UACC-62 melanoma
Assay Procedure: NCI tumour cell line growth inhibition, 48 h
# TGI listing for each entry below
Numbers only; they are read as µM.

Solved entries:
INSERT INTO results (smi, unit_spec, test_result) VALUES
  ('COC1=CC(c2ccc[nH]2)=N/C1=C\c1[nH]c(C)c(C(=O)CCCCC(=O)Nc2ccccc2)c1C', 'µM', 24.5),
  ('O=c1[nH]nc(Cc2ccc(Cl)cc2)n1/N=C\CC/C=N\n1c(Cc2ccc(Cl)cc2)n[nH]c1=O', 'µM', 45.7),
  ('COc1ccc(O)c(C=NCCCN=Cc2cc(OC)ccc2O)c1', 'µM', 84.5);

Please look at the following compound next.
Enquiry: Query TGI for ClC1=C(Cc2ccccc2)Cc2ccc3c(c21)CCC3
Return: 60.3

----------
Tested on: RPMI-8226 leukemia
Assay Procedure: NCI tumour cell line growth inhibition, 48 h
Reported Endpoint: TGI

Solved entries:
INSERT INTO measurements (molecule, test_result) VALUES
  ('COc1cc(-c2cc(-c3nc4ccc(Cl)cc4[nH]3)[nH]n2)cc(OC)c1OC', '4.21 µM'),
  ('Cc1ccc(C)c(-c2csc(Nc3ccc(C)c(C)c3)n2)c1', '> 100 µM'),
  ('C1=Cc2nc1c(-c1ccncc1)c1ccc([n-]1)c(-c1ccncc1)c1nc(c(-c3ccncc3)c3ccc([n-]3)c2-c2ccncc2)C=C1.[Zn+2]', '> 100 µM'),
  ('O=C(O)c1ccc(C(c2c(O)c3ccccc3oc2=O)c2c(O)c3ccccc3oc2=O)cc1', '> 100 µM'),
  ('COc1ccc(O)c(C=NCCCN=Cc2cc(OC)ccc2O)c1', '74.7 µM');

Enquiry: Query TGI for CC(=O)Oc1ccccc1C(=O)O
Return: > 100 µM

Enquiry: Query TGI for CC1OC(OCC2COC(O)(Oc3c(-c4ccc(O)c(O)c4)oc4cc(O)cc(O)c4c3=O)C(O)C2O)C(O)C(O)C1O (stereo not drawn)
Return: > 100 µM

Enquiry: Query TGI for OC1CN2CCS[C@H]2C(O)C1O (stereo partly drawn)
Return: > 100 µM

Enquiry: Query TGI for CC1C=CC(=O)C(n2cc(F)c(=O)[nH]c2=O)O1 (stereo not drawn)
Return: 38.7 µM

Enquiry: Query TGI for N#CC(c1cc2c(cc1Br)OCO2)N1CCOCC1 (stereo not drawn)
Return: > 100 µM

Enquiry: Query TGI for O=C(OCC1OC(c2nn[nH]n2)C(OC(=O)c2ccccc2)C1OC(=O)c1ccccc1)c1ccccc1 (stereo not drawn)
Return: > 100 µM

Enquiry: Query TGI for O=[N+]([O-])c1nccn1COCCF
Return: > 100 µM

Enquiry: Query TGI for COc1ccc([C@H]2CC(=O)NCCCCN2)cc1
Return: > 100 µM

Enquiry: Query TGI for CCOC(=O)c1[nH]c2ccccc2c1C(=O)C[C@H](NC(=O)C(F)(F)F)C(=O)OC
Return: > 100 µM

Enquiry: Query TGI for CC(C)n1c2c([n+](C)c1/C=C/c1ccccc1)C(=O)c1ccccc1C2=O
Return: 8.96 µM

Enquiry: Query TGI for O=C(OC(=C(c1ccccc1)c1ccccc1)N1CCCC1=S)C(c1ccccc1)c1ccccc1
Return: > 10 µM

Enquiry: Query TGI for Cc1cccc(-c2cc(=S)c3cc(N4CCCC4)ccc3[nH]2)c1
Return: > 100 µM

Enquiry: Query TGI for CCOC(=O)c1c(-c2ccc(OC)cc2)c(C#N)c(=S)n(C2OC(CO)C(O)C(O)C2O)c1-c1ccccc1 (stereo not drawn)
Return: > 100 µM

Enquiry: Query TGI for O=c1oc2ccc3ccccc3c2cc1-c1nc2ccccc2o1
Return: > 63.4 µM

Enquiry: Query TGI for CN(C)c1ccc(/C=C(\NC(=O)c2ccccc2)C2NC(Cc3c[nH]c4ccccc34)C(=O)O2)cc1 (stereo not drawn)
Return: > 49 µM

Enquiry: Query TGI for N/N=C1\CCCc2c1no[n+]2[O-]
Return: > 100 µM

Enquiry: Query TGI for Cc1cc(Cl)ccc1N=C1NC(=O)C(CC(=O)Nc2ccc(Cl)cc2Cl)S1 (stereo not drawn)
Return: > 100 µM

Enquiry: Query TGI for COC(=O)C1(Cc2ccccc2)Cc2ccc3c(c2C1=O)CCC3 (stereo not drawn)
Return: > 90.3 µM

----------
# GI50 listing for each entry below
System: UACC-62 melanoma
Assay Procedure: NCI tumour cell line growth inhibition, 48 h

INSERT INTO results (compound, test_result) VALUES
  ('COC1=CC(c2ccc[nH]2)=N/C1=C\c1[nH]c(C)c(C(=O)CCCCC(=O)Nc2ccccc2)c1C', '8.71 µM'),
  ('NCCC(O)(P(=O)(O)O)P(=O)(O)O', '29.1 µM'),
  ('O=[N+]([O-])O.[Ga]', '892 µM'),
  ('Cc1ccc(S(=O)(=O)N2CCc3ccc(O)c4c3C2Cc2cc(Cl)ccc2-4)cc1 (stereo not given)', '0.962 µM'),
  ('CC(=O)Oc1cc2c(cc1OC(C)=O)[C@H]1CC[C@]3(C)[C@@H](OC(C)=O)CC[C@H]3[C@@H]1CC2', '2.48 µM');

Enquiry: Query GI50 for COc1ccc(C2=NN(C(C)=O)C(c3cn(-c4ccccc4)nc3-c3ccc(Cl)cc3)C2)cc1 (stereo not given)
Return: > 100 µM

Enquiry: Query GI50 for COc1cc2nc(Nc3cccc(F)c3)nc(Nc3cc(C)[nH]n3)c2cc1OC
Return: 1.85 µM

Enquiry: Query GI50 for Nc1c(C(=O)Nc2ccccc2Cl)sc2nc3c(cc12)CCCCCC3
Return: 3.32 µM

Enquiry: Query GI50 for C=C(C)[C@@H]1CC[C@]2(C)[C@H](CC[C@@H]3[C@H]4[C@H]5OC[C@@]4(CCC5(C)C)CC[C@]32C)[C@@]1(C)CCCN
Return: 1.71 µM

Enquiry: Query GI50 for CSc1nc2sc3cc(Cl)ccc3n2c(=N)c1C#N
Return: 17.7 µM
